- tgt: HIV-1 MGRM-D-001 envelope glycoprotein (Env) on pseudovirus (HIV-1)
- method summary: cell-based or functional assay

binder	IC50, pseudovirus neutralization
PGT-126 monoclonal antibody (antibody, V domains shown) VH: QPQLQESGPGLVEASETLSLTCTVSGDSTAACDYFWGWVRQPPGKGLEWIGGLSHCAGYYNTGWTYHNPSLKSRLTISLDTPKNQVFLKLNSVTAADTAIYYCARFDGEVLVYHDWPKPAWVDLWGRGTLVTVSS VL: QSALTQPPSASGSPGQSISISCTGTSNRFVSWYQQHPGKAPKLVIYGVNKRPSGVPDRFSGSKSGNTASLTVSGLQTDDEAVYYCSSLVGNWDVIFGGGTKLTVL	0.0639 µg/mL
PGT-125 monoclonal antibody (antibody, V domains shown) VH: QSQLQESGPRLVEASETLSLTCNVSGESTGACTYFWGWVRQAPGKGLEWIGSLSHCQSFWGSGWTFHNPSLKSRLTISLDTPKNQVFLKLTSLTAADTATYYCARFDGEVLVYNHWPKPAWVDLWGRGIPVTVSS VL: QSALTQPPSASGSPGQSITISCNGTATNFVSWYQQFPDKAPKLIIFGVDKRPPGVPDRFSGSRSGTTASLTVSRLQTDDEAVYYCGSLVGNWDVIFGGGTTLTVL	2.31 µg/mL
PGT-135 monoclonal antibody (antibody, V domains shown) VH: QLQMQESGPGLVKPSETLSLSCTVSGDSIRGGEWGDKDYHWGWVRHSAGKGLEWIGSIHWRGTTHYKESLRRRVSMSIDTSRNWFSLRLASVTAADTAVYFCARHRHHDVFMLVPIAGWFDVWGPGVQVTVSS VL: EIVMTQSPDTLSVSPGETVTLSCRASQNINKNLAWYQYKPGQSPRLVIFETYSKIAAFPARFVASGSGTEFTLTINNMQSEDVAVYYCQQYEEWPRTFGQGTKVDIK	> 10 µg/mL
